Reference source for all entries: paper PMC10958042

B1: ATGL (PNPLA2, patatin-like phospholipase domain-containing protein 2), human, full length / CGI-58 (ABHD5, 1-acylglycerol-3-phosphate O-acyltransferase ABHD5), human (parent)
chain 1: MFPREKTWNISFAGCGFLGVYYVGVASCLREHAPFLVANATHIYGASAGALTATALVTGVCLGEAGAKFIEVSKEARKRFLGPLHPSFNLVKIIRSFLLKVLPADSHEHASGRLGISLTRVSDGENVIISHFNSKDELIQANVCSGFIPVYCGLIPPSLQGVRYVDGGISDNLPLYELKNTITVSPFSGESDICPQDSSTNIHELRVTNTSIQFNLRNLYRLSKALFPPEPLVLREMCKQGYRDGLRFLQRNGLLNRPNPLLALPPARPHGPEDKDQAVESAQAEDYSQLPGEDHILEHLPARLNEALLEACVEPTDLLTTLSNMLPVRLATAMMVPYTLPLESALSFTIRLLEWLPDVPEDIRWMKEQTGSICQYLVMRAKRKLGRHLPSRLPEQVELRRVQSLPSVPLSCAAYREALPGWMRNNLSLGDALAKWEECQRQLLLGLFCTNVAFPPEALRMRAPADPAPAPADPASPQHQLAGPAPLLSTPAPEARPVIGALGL
chain 2: MAAEEEEVDSADTGERSGWLTGWLPTWCPTSISHLKEAEEKMLKCVPCTYKKEPVRISNGNKIWTLKFSHNISNKTPLVLLHGFGGGLGLWALNFGDLCTNRPVYAFDLLGFGRSSRPRFDSDAEEVENQFVESIEEWRCALGLDKMILLGHNLGGFLAAAYSLKYPSRVNHLILVEPWGFPERPDLADQDRPIPVWIRALGAALTPFNPLAGLRIAGPFGLSLVQRLRPDFKRKYSSMFEDDTVTEYIYHCNVQTPSGETAFKNMTIPYGWAKRPMLQRIGKMHPDIPVSVIFGARSCIDGNSGTSIQSLRPHSYVKTIAILGAGHYVYADQPEEFNQKVKEICDTVD

- Variants of: B1
- ASSAY_PROTOCOL: LUMIER: Protein A-ATGL variant and firefly luciferase-partner co-expressed in HEK293T, lysates immunoprecipitated on IgG-coated plates, co-precipitated partner measured as luciferase luminescence
- REPORTED_CONDITIONS: with CGI-58 (ABHD5, 1-acylglycerol-3-phosphate O-acyltransferase ABHD5), transient co-transfection, IgG-coated LUMITRAC plates, 2 h at 4 °C, three PBS washes, Bright-Glo luciferase reagent, triplicates per assay, two …, parent: 0.45, not graded, scale: log2 fold change of co-immunoprecipitated luminescence relative to wild-type ATGL within each experiment
Please respond with yes when measured screen value is strictly beneath -0.2, and with no in all other cases.

| MUTANT_NAME | CLASS_ASSIGNMENT |
| --- | --- |
| chain 1 P258L | yes |
| chain 1 G16K | no |
| chain 1 G153K | yes |
| chain 1 E314A | no |
| chain 1 R95K | no |
| chain 1 R329E | yes |
| chain 1 Q396A | yes |
| chain 1 F35A | yes |
| chain 1 R113L | yes |
